- system: HDM2 (Homo sapiens, UniProt Q00987)
- Construct: Thioredoxin (N); made in house; host or cells: E. coli BL21(DE3)Rosetta (pET32a)
- Sequence (Q00987 17-125): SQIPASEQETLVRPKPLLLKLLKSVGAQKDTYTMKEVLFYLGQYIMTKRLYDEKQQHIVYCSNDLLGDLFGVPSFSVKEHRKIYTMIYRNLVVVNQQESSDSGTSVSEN
- test: HDM2 FRET assay (inhibition of p53 peptide binding to HDM2)
- measurementParameters: Table 1; truncated HDM2 residues 17 to 125, 0.5 nM HDM2, 3 nM FITC labeled 8-mer peptide, two hour incubation
Assign IC50 to each entry below.
Give the value, in units of nM, as a plain number.

IC50 lookup needed for `C[C@@H](Nc1nc(-c2n[nH]c(=O)o2)nc2ncn(C[C@H]3CC[C@H](C)CC3)c12)C1CCC1` , thanks.
52.5

IC50 lookup needed for `C[C@H]1CC[C@H](Cn2cnc3nc(-c4noc(=O)[nH]4)nc(Oc4cccc(Cl)c4)c32)CC1` , thanks.
392

IC50 lookup needed for `C[C@H]1CC[C@H](Cn2cnc3nc(-c4noc(=O)[nH]4)nc(N4CCCC(F)(F)C4)c32)CC1` , thanks.
820

IC50 lookup needed for `C[C@@H](Nc1nc(-c2noc(=O)[nH]2)nc2ncn(Cc3ccc(C(F)(F)F)cc3)c12)C1CCC1` , thanks.
21.6
